Data credit: paper PMC8246079

target desc: DIDO1 PHD domain with selenomethionine in place of methionine (SeMet mutant) (UniProt Q9BTC0)
experimental protocol: ITC
Non-standard residues stand in square brackets, D forms with d. No end group written: not given here. Lys(Me3) = C[N+](C)(C)CCCC[C@H](N)C(=O)O
quantity kind: Kd (µM)
Give bare numbers, in µM.

In one line, give reported Kd of the entry ART[Lys(Me3)]QTARKSTGGY [histone H3 tail peptide trimethylated at K4 (H3K4me3), ARTX… with X = Kme3] .
4.2
